Target System: R132H IDH1 (Homo sapiens, UniProt O75874, R132H)
Sequence (O75874 whole entry R132H): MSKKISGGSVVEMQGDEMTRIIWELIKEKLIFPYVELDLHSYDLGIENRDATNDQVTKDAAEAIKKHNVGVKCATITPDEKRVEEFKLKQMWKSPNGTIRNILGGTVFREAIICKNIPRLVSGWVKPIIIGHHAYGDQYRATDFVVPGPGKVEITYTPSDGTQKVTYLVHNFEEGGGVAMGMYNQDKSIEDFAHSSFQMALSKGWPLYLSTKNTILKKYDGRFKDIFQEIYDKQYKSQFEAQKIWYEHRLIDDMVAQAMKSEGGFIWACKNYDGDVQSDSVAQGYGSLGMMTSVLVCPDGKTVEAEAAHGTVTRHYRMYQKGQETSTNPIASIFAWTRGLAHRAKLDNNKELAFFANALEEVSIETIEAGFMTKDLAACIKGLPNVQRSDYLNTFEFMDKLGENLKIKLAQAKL
Experiment: Absorbance assay, variant activity in the presence of equimolar 2OG (inhibition screen)
Assay type: biochemical
Set-up: made in house; host or cells: Escherichia coli BL21(DE3) pLyS
Cond: […] 2OG and […] test compound, 0.03 μM R132H IDH1, 50 μM NADPH
Quantity: activity [%] (%-substrate conversion after 20 min incubation) (%)

1: O=C(O)C(=O)C1CC=CCC1C(=O)O (mixture of isomers) [compound 27]
2: O=C(O)CC(CCCc1ccccc1)C(=O)C(=O)O (racemic) [compound 6]
For this pair, 1 and 2 , which shows a numerically higher activity [%] (%-substrate conversion after 20 min incubation)? Kindly state the label of the option you pick.
2
(2: 182%, 1: 94%)
